Below: a set of entries, each annotated with reported % Inhibition at 1 µM.
SUBJECT OF TEST: T1, melanocortin-1 receptor (MC1-R) of B-16 mouse melanoma cells (mouse, UniProt Q01727 1-315)
T1 construct: whole, on cells; membranes prepared from the cells were used; also called Melanocortin Receptor 1
ASSAY PROCEDURE: 125I-NDP-α-MSH competition, B-16 membranes
Square brackets hold non-standard residues; d marks the D form. Ends that are not written are not given here. Nle = CCCC[C@H](N)C(=O)O
Give the value, in units of %, as a plain number.

YV[Nle]GH[dF]RCWDRF-NH2 (not fully specified (bridges); printed as Tyr-Val-Nle-Gly-His-D-Phe-Arg-Cys-Trp-Asp-Arg-Phe-NH2; also: bridge at 8 via Re(V)=O, other end not in the chain) [metallopeptide 3-5] = 83

So what does the record say about % Inhibition at 1 µM for YVXGHFRWDRF (Nle 3 (X in letters); D-Phe 6; C-terminal amide, not complexed to Re) [[Nle3, D-Phe6]-γ-MSH parent polypeptide Tyr-Val-Nle-Gly-His-D-Phe-Arg-Trp-Asp-Arg-Phe-NH2] ? 99

Try this binder too: YVXGHFRWDRFC (Nle 3 (X in letters); D-Phe 6; C-terminal amide; Re complexed at Cys 12) [metallopeptide 3-1] 95
